assay: Pharmacokinetics in cynomolgus monkeys; format: in vivo, cynomolgus monkey; conditions: male, cynomolgus monkey; 2 mg/kg IV, plasma; read-out: AUC0–24 h
observed property: AUC(0-t)

1) CC1(C)OB(O)c2cc(NC(=O)c3ccc(F)cc3C(F)(F)F)ccc21 [SCYX-7158] ... 78800 ng·h/mL

###

assay: Steady-state pharmacokinetics in T. brucei-infected mice; format: in vivo, mouse; conditions: mouse, plasma; 25 mg/kg doses; read-out: plasma Cmax at steady-state
observed property: Cmax

1) CC1(C)OB(O)c2cc(NC(=O)c3ccc(F)cc3C(F)(F)F)ccc21 ... ~15000 ng/mL

###

test: Pharmacokinetics in uninfected mice; assay type: in vivo, mouse; settings: male, CD-1, mouse, brain/plasma; 26 mg/kg oral; read-out: brain to plasma ratio based on AUC0–24 h
observed property: Kp

1) CC1(C)OB(O)c2cc(NC(=O)c3ccc(F)cc3C(F)(F)F)ccc21 [SCYX-7158] ... 0.6

###

assay: Pharmacokinetics in uninfected mice; format: in vivo, mouse; conditions: male, CD-1, mouse, brain and plasma; 13.4 mg/kg oral; read-out: brain to plasma ratio based on AUC0–24 h
observed property: Kp

1) CC1(C)OB(O)c2cc(NC(=O)c3ccc(F)cc3C(F)(F)F)ccc21 ... 0.38

###

experiment: Pharmacokinetics in uninfected mice; assay type: in vivo, mouse; details: male, CD-1, mouse, plasma; 13.4 mg/kg oral; read-out: absolute oral bioavailability
observed property: bioavailability

1. CC1(C)OB(O)c2cc(NC(=O)c3ccc(F)cc3C(F)(F)F)ccc21 ... 55%

###

Assay: Pharmacokinetics in uninfected rats
Format: in vivo, rat
Conditions: male, Sprague-Dawley, rat; 25 mg/kg oral, brain; read-out: AUC0–24 h in the brain
Method: The blood distribution, CNS disposition and pharmacokinetics of SCYX-7158 were evaluated in infected or non-infected rodents following intravenous or oral administration of compounds. Pharmacokinetics and bioavailability of SCYX-7158 were also evaluated in non-infected beagle dogs and cynomolgus monkeys. In-life phases of non-infected rodent studies were performed at Vivisource (Waltham, MA); studies in non-naïve cynomolgus monkeys were performed by SNBL USA (Everett, WA). […]
observed property: AUC(0-t) (µg·h/mL)

1) CC1(C)OB(O)c2cc(NC(=O)c3ccc(F)cc3C(F)(F)F)ccc21 [SCYX-7158] ... 129

###

experiment: Plasma protein binding by rapid equilibrium dialysis; format: in vitro ADME; settings: human plasma, 1 µg/mL
observed property: fraction unbound at 4 h, 1 µg/mL

1) CC1(C)OB(O)c2cc(NC(=O)c3ccc(F)cc3C(F)(F)F)ccc21 ... 0.013

###

assay: Pharmacokinetics in uninfected rats; format: in vivo, rat; conditions: male, Sprague-Dawley, rat; 25 mg/kg oral, CSF; read-out: AUC0–24 h in the CSF
observed property: AUC(0-t) (ng·h/mL)

1) CC1(C)OB(O)c2cc(NC(=O)c3ccc(F)cc3C(F)(F)F)ccc21 ... 14600

###

test: Pharmacokinetics in uninfected mice; type: in vivo, mouse; details: male, CD-1, mouse, plasma; 4.3 mg/kg intravenous; read-out: volume of distribution (Vdss)
observed property: Vd (L/kg)

1. CC1(C)OB(O)c2cc(NC(=O)c3ccc(F)cc3C(F)(F)F)ccc21 ... 1.69

###

assay: Metabolic stability in liver microsomal and S9 fractions; type: in vitro ADME, rodents, cynomolgus monkey and humans; settings: CD-1 (mouse), Sprague-Dawley (rat), beagle (dog), cynomolgus monkey, human, liver microsomes and liver S9 fractions, all species
observed property: half-life at 1 µM

1. CC1(C)OB(O)c2cc(NC(=O)c3ccc(F)cc3C(F)(F)F)ccc21 ... > 5.83 h
